Target: 5-lipoxygenase (Rattus norvegicus)
Construct: ultracentrifugation at 100,000×g for 90 minutes to collect a supernatant, which was served as a 5-lipoxygenase enzyme liquid
Sequence (P12527 whole entry): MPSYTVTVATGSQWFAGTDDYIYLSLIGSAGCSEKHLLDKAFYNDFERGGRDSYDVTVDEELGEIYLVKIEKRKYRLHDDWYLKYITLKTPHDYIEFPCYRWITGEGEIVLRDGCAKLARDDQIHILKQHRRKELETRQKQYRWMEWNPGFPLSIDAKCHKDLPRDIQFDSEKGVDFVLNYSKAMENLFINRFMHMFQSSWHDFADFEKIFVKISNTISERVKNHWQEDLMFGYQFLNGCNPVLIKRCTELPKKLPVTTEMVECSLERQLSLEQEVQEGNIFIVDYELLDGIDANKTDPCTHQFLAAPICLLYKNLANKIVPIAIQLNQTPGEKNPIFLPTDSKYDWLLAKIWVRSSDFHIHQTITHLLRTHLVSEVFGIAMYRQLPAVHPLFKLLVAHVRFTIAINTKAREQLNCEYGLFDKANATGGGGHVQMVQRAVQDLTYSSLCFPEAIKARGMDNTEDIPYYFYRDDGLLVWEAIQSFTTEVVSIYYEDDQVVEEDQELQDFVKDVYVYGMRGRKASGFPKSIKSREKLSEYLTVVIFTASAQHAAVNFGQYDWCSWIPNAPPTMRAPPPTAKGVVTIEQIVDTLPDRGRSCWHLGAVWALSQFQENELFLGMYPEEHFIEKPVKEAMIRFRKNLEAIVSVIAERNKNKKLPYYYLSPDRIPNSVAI
Assay: 5-Lipoxygenase inhibitive activity (production of 5-HETE by RBL-1 cell supernatant)
Details: inhibition of 5-HETE production; 37° C., 10 minutes; 100 μM arachidonic acid
So I've got a bunch of molecules here, and I need their pIC50 values.
By convention, pIC50 is the negative base-10 log of a molar concentration.

Ask: // lookup pIC50 for CCCCCC1Cc2cc(O)cc(O)c2O1 (centres unmarked) [Compound 2]
Reply: 5.92

Ask: Also, C/C=C/C=C/C1Cc2cc(O)cc(O)c2O1 (centres unmarked) [Compound 1] please.
Reply: 5.70
